ASSAY_TARGET: ATP-dependent translocase ABCB1 (Homo sapiens) (UniProt P08183)
Sequence (P08183 whole entry, looked up): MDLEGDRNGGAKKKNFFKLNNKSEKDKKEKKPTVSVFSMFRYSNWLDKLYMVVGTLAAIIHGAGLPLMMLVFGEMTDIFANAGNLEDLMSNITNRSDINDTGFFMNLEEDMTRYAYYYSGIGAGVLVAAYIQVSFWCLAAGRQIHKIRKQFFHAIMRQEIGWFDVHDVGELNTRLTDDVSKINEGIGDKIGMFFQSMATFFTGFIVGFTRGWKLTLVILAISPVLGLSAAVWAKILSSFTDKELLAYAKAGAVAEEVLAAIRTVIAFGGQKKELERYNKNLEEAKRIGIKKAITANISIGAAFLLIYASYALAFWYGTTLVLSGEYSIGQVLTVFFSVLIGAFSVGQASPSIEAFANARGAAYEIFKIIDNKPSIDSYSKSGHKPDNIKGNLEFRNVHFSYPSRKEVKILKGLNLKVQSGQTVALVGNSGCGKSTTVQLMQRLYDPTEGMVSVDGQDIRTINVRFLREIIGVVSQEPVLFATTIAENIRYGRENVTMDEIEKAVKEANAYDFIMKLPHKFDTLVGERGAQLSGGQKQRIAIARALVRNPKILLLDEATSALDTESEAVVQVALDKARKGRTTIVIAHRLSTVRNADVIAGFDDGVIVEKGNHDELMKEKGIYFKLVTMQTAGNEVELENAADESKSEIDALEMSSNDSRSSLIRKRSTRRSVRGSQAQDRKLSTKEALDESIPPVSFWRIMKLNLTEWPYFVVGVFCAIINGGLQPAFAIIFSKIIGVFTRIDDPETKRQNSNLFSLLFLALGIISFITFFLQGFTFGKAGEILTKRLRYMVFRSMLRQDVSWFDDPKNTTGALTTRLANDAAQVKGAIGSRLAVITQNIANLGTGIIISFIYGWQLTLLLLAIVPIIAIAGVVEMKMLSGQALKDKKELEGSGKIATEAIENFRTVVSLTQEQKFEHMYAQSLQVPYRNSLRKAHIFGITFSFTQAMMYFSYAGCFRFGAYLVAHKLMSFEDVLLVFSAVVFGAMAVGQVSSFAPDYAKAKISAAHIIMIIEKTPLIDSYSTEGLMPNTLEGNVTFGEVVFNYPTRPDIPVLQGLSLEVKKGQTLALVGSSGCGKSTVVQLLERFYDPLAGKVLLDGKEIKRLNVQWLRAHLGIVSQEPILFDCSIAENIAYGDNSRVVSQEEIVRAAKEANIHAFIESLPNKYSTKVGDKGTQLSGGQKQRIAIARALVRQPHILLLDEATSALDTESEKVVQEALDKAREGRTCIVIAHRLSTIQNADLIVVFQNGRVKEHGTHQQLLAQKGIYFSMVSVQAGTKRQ
ASSAY_PROCEDURE: qHTS for characterization and localization of zebrafish homologs of the human ABCB1 multidrug transporter: P-gp overexpressing MDR-19 cells
STUDY_CONDITIONS: MDR-19 cells overexpressing P-gp, CellTiter-Glo luminescence viability, 72 h; series mostly up to 46.1 µM
Records with an inconclusive call do not appear. The source made the active and inactive calls. The call rests on the fitted dose curve; in most records, active means well fitted inhibition curve with a large enough effect; inconclusive means small, poorly fitted or top-dose-only effect; inactive means flat fitted curve, though single readings scatter.
Choose the fitting class; nothing outside Yes = active, No = inactive is accepted.

I'd appreciate the recorded outcome for `COc1cc2c(NC3CCN(C(C)C)CC3)nc(N3CCCN(C)CC3)nc2cc1OCCCN1CCCC1` from this test.
No

I'd appreciate the recorded outcome for `CO[C@H]1/C=C/C=C/C=C/C[C@H](OC(=O)[C@@H](C)NC(=O)C2CCCCC2)[C@H](C)[C@@H](O)/C(C)=C/CCc2cc(O)cc(c2)NC(=O)C1` from this test.
No

I'd appreciate the recorded outcome for CC(NCc1ccc2c(c1)nc(NC(=O)c1ccc(-c3cn[nH]c3)s1)n2CC(C)(C)O)C(C)(C)C (stereo not drawn) from this test.
Yes

I'd appreciate the recorded outcome for `Cc1cc(Nc2cc(NC(=O)c3c(Cl)cccc3Cl)ccn2)nc(N)n1` from this test.
Yes

I'd appreciate the recorded outcome for `CC1(C)CC(NC(=O)C(=O)Nc2ccc(Br)cc2)CC(C)(C)N1` from this test.
No

I'd appreciate the recorded outcome for `Cc1ccc(C(=O)N(CCCN)[C@@H](c2oc3cc(Cl)ccc3c(=O)c2Cc2ccccc2)C(C)C)cc1` from this test.
Yes

I'd appreciate the recorded outcome for `Cc1[nH]c2ccccc2c1CCNCc1ccc(/C=C/C(=O)NO)cc1` from this test.
Yes

I'd appreciate the recorded outcome for COc1ccc(CC2C(=O)NC(C)C(=O)N(C)C3Cc4ccc(cc4)Oc4cc(ccc4OC4OC(CO)C(O)C(O)C4O)CC(C(=O)NC(C)C(=O)NC(C)C(=O)N2C)N(C)C3=O)cc1 (stereo not drawn) from this test.
No

I'd appreciate the recorded outcome for `COc1cccc2c1C(=O)c1c(O)c3c(c(O)c1C2=O)C[C@@](O)(C(=O)CO)C[C@H]3O[C@H]1C[C@H](N)[C@@H](O)[C@H](C)O1` from this test.
Yes

I'd appreciate the recorded outcome for `CCS(=O)(=O)c1cccc(-c2cc(C(=O)NC3CCN(C)CC3)c(C)c3[nH]c4ncc(C)cc4c23)c1` from this test.
No

I'd appreciate the recorded outcome for `O=C(NC1CCNCC1)c1[nH]ncc1NC(=O)c1c(Cl)cccc1Cl` from this test.
No

I'd appreciate the recorded outcome for `CCN1CCN(Cc2ccc(NC(=O)Nc3ccc(Oc4cc(NC)ncn4)cc3)cc2C(F)(F)F)CC1` from this test.
No

I'd appreciate the recorded outcome for `CCCCc1nc2cc(C=CC(=O)NO)ccc2n1CCN(CC)CC` from this test.
Yes

###

ASSAY_TARGET: ATP-dependent translocase ABCB1 (Homo sapiens)
ASSAY_PROCEDURE: qHTS for characterization and localization of zebrafish homologs of the human ABCB1 multidrug transporter: P-gp overexpressing MDR-19 cells
STUDY_CONDITIONS: MDR-19 cells overexpressing P-gp, CellTiter-Glo luminescence viability, 72 h; series mostly up to 46.1 µM
Records with an inconclusive call do not appear. The source made the active and inactive calls. Calls follow the shape of the dose curve; as a rule, active = well fitted inhibition curve with a large enough effect; inconclusive = small, poorly fitted or top-dose-only effect; inactive = flat fitted curve, though single readings scatter.
Choose the fitting class; nothing outside label 1 = active, label 0 = inactive is accepted.

I'd appreciate the recorded outcome for `CN(C)c1ccc(C(=C2C=CC(=[N+](C)C)C=C2)c2ccc(N(C)C)cc2)cc1` from this test.
label 1

I'd appreciate the recorded outcome for CC1(C)CC[C@]2(C(=O)OC3OC(CO)C(O)C(O)C3O)CC[C@]3(C)C(=CCC4[C@@]5(C)CC[C@H](OC6OC(C(=O)O)C(O)C(O)C6O)C(CO)(CO)C5CC[C@]43C)[C@@H]2C1 (some centres not stated) from this test.
label 0

I'd appreciate the recorded outcome for `CC(C)C[C@H](NC(=O)[C@H](CCc1ccccc1)NC(=O)CN1CCOCC1)C(=O)N[C@@H](Cc1ccccc1)C(=O)N[C@@H](CC(C)C)C(=O)[C@@]1(C)CO1` from this test.
label 1

I'd appreciate the recorded outcome for `CC(C)CC(=O)Nc1n[nH]c2c1CN(C(=O)C1CCN(C)CC1)C2(C)C` from this test.
label 0

I'd appreciate the recorded outcome for `C[C@@H](Oc1cc(-n2cnc3ccc(CN4CCN(C)CC4)cc32)sc1C(N)=O)c1ccccc1C(F)(F)F` from this test.
label 1

I'd appreciate the recorded outcome for `COc1cc(N2CCC(O)CC2)ccc1Nc1nc(Nc2ccccc2S(=O)(=O)C(C)C)c2[nH]cnc2n1` from this test.
label 0

I'd appreciate the recorded outcome for `COc1cc(C(=O)NC2CCN(C)CC2)ccc1Nc1ncc2c(n1)N(C1CCCC1)CC(F)(F)C(=O)N2C` from this test.
label 1

This collection of values is drawn from PubChem BioAssay AID1508636.
